Entries annotated with measured viability, T/C
System: K98450-129-R-PDC complex spheroid growth, percent test/control
Assay: Anticancer human tumor K98450-129-R-PDC patient-derived colon adenocarcinoma cell line growth inhibition [RAS]
Details: second compound 0.0949 µM; first compound 0.0316 µM; stronger effect = lower value

| COMPOUND | ASSAY_SYSTEM | viability, T/C (%) |
| --- | --- | --- |
| CC(C)NCC(C(=O)N1CCN(c2ncnc3c2C(C)CC3O)CC1)c1ccc(Cl)cc1 (centres undefined) + CCn1c(-c2cc(N3CCN(C)CC3)cnc2C(C)OC)c2c3cc(ccc31)-c1csc(n1)CC(NC(=O)C1CC1C)C(=O)N1CCCC(N1)C(=O)OCC(C)(C)C2 | K98450-129-R-PDC complex spheroid growth, percent test/control | 19 |
| Cc1nc(N2CCC3(CC2)COC(C)C3N)c(CO)nc1Sc1ccnc(N)c1Cl (centres undefined) + CCn1c(-c2cccnc2C(C)OC)c2c3cc(ccc31)N1CCOC(CC(NC(=O)C(C(C)C)N(C)C(=O)C3(F)CCN(C(=O)C#CC(C)(C)N(C)C)CC3)C(=O)N3CCCC(N3)C(=O)OCC(C)(C)C2)C1 | K98450-129-R-PDC complex spheroid growth, percent test/control | 20.9 |
| CC(C)NCC(C(=O)N1CCN(c2ncnc3c2C(C)CC3O)CC1)c1ccc(Cl)cc1 (centres undefined) + CCn1c(-c2cccnc2C(C)OC)c2c3cc(ccc31)N1CCOC(CC(NC(=O)C(C(C)C)N(C)C(=O)C3(F)CCN(C(=O)C#CC(C)(C)N(C)C)CC3)C(=O)N3CCCC(N3)C(=O)OCC(C)(C)C2)C1 | K98450-129-R-PDC complex spheroid growth, percent test/control | 32.4 |
| CC(Nc1ccc2c(c1)OCCn1cc(N3C(=O)OCC3C(F)F)nc1-2)C(N)=O (centres undefined) + CCn1c(-c2cccnc2C(C)OC)c2c3cc(ccc31)N1CCOC(CC(NC(=O)C(C(C)C)N(C)C(=O)C3(F)CCN(C(=O)C#CC(C)(C)N(C)C)CC3)C(=O)N3CCCC(N3)C(=O)OCC(C)(C)C2)C1 | K98450-129-R-PDC complex spheroid growth, percent test/control | 34.4 |

* * *

Test system: K98450-129-R-PDC complex spheroid growth, percent test/control
Test: Anticancer human tumor K98450-129-R-PDC cell line growth inhibition [RAS]; active = viability on the fitted dose curve at most 10% of control; inactive = the rest;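 further: luminescence used as a proxy for viable cell amount; spheroids exposed to agents for seven days before the viability readout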
Settings: second compound 0.3 µM; first compound 0.316 µM
Outcome codes: active, inactive

| COMPOUND | ANSWER_LABEL |
| --- | --- |
| Cc1nc(N2CCC3(CC2)COC(C)C3N)c(CO)nc1Sc1ccnc(N)c1Cl (configuration not stated) + CCn1c(-c2cc(N3CCN(C)CC3)cnc2C(C)OC)c2c3cc(ccc31)-c1csc(n1)CC(NC(=O)C1CC1C)C(=O)N1CCCC(N1)C(=O)OCC(C)(C)C2 | active |
| CCN1CCN(Cc2ccc(Nc3ncc(F)c(-c4cc(F)c5nc(C)n(C(C)C)c5c4)n3)nc2)CC1 + CCn1c(-c2cc(N3CCN(C)CC3)cnc2C(C)OC)c2c3cc(ccc31)-c1csc(n1)CC(NC(=O)C1CC1C)C(=O)N1CCCC(N1)C(=O)OCC(C)(C)C2 | inactive |

* * *

Tested on: K98450-129-R-PDC complex spheroid growth, percent test/control
Test: Anticancer human tumor K98450-129-R-PDC cell line growth inhibition [RAS];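 further: luminescence used as a proxy for viable cell amount; spheroids exposed to agents for seven days before the viability readout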
Conditions: second compound 1 µM; first compound 0.0316 µM; stronger effect = lower value
Entries annotated with measured viability, T/C
PROPERTY_LABEL: viability, T/C (%)

| COMPOUND | PROPERTY_LABEL | UNIT_ANNOTATION | VAL |
| --- | --- | --- | --- |
| CC(C)NCC(C(=O)N1CCN(c2ncnc3c2C(C)CC3O)CC1)c1ccc(Cl)cc1 (stereo not given) + C=CC(=O)N1CCN(c2nc(OCC3CCCN3C)nc3c(F)c(-c4nc(N)cc(C)c4C(F)(F)F)c(Cl)cc23)C(C)C1 | viability, T/C | % | 31.4 |
| CC1(O)CCCC1n1c(=O)c(C(F)F)cc2cnc(NC3CCN(S(C)(=O)=O)CC3)nc21 (stereo not given) + C#Cc1c(F)ccc2cc(O)cc(-c3ncc4c(N5CC6CCC(C5)N6)nc(OCC56CCCN5CC(F)C6)nc4c3F)c12 | viability, T/C | % | 104 |
| CC(C)NCC(C(=O)N1CCN(c2ncnc3c2C(C)CC3O)CC1)c1ccc(Cl)cc1 (stereo not given) + C#Cc1c(F)ccc2cc(O)cc(-c3ncc4c(N5CC6CCC(C5)N6)nc(OCC56CCCN5CC(F)C6)nc4c3F)c12 | viability, T/C | % | 99.5 |
| Nc1ccn(C2OC(CO)C(O)C2(F)F)c(=O)n1 (stereo not given) + C=CC(=O)N1CCN(c2nc(OCC3CCCN3C)nc3c(F)c(-c4nc(N)cc(C)c4C(F)(F)F)c(Cl)cc23)C(C)C1 | viability, T/C | % | 18.8 |
| O=C(c1ccc(F)c(F)c1Nc1ccc(I)cc1F)N1CC(O)([C@@H]2CCCCN2)C1 + C=CC(=O)N1CCN(c2nc(OCC3CCCN3C)nc3c(F)c(-c4nc(N)cc(C)c4C(F)(F)F)c(Cl)cc23)C(C)C1 | viability, T/C | % | 16.3 |

* * *

Tested on: K98450-129-R-PDC complex spheroid growth, percent test/control
Assay: Anticancer human tumor K98450-129-R-PDC cell line growth inhibition [RAS]; active = viability on the fitted dose curve at most 10% of control; inactive = the rest;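 further: luminescence used as a proxy for viable cell amount; spheroids exposed to agents for seven days before the viability readout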
Conditions: second compound 0.3 µM; first compound 0.316 µM
From the text: RAS pathway inhibitors in Combinations in Complex Spheroids A high-throughput screen of multi-cell type tumor spheroids was designed to identify active combinations of RAS pathway inhibitors and targeted small molecules. Complex spheroids include a stromal component modeled by human endothelial cells (HUVEC) and fibroblasts modeled by human mesenchymal stem cells (MSCs). […] Compounds. […] If the clinical Cmax for an agent had not been determined, the highest concentration tested was 10 microM. […]
Outcome codes: t (active), f (inactive)

| COMPOUND | ANSWER_LABEL |
| --- | --- |
| NC1c2ccccc2OC12CCN(c1cnc3c(N4CCCc5ncccc54)n[nH]c3n1)CC2 (configuration not stated) + CCn1c(-c2cc(N3CCN(C)CC3)cnc2C(C)OC)c2c3cc(ccc31)-c1csc(n1)CC(NC(=O)C1CC1C)C(=O)N1CCCC(N1)C(=O)OCC(C)(C)C2 | t |
| CC(Nc1ccc2c(c1)OCCn1cc(N3C(=O)OCC3C(F)F)nc1-2)C(N)=O (configuration not stated) + CCn1c(-c2cccnc2C(C)OC)c2c3cc(ccc31)N1CCOC(CC(NC(=O)C(C(C)C)N(C)C(=O)C3(F)CCN(C(=O)C#CC(C)(C)N(C)C)CC3)C(=O)N3CCCC(N3)C(=O)OCC(C)(C)C2)C1 | f |

* * *

Test system: K98450-129-R-PDC complex spheroid growth, percent test/control
Assay: Anticancer human tumor K98450-129-R-PDC cell line growth inhibition [RAS];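 further: luminescence used as a proxy for viable cell amount; spheroids exposed to agents for seven days before the viability readout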
Settings: second compound 3.16 µM; first compound 0.01 µM; stronger effect = lower value

| COMPOUND | ASSAY_SYSTEM | viability, T/C |
| --- | --- | --- |
| CCN1CCN(Cc2ccc(Nc3ncc(F)c(-c4cc(F)c5nc(C)n(C(C)C)c5c4)n3)nc2)CC1 + C#Cc1c(F)ccc2cc(O)cc(-c3ncc4c(N5CC6CCC(C5)N6)nc(OCC56CCCN5CC(F)C6)nc4c3F)c12 | K98450-129-R-PDC complex spheroid growth, percent test/control | 94.6% |
| O=C(c1ccc(F)c(F)c1Nc1ccc(I)cc1F)N1CC(O)([C@@H]2CCCCN2)C1 + C#Cc1c(F)ccc2cc(O)cc(-c3ncc4c(N5CC6CCC(C5)N6)nc(OCC56CCCN5CC(F)C6)nc4c3F)c12 | K98450-129-R-PDC complex spheroid growth, percent test/control | 89.7% |
| Nc1ccn(C2OC(CO)C(O)C2(F)F)c(=O)n1 (stereo unspecified) + C#Cc1c(F)ccc2cc(O)cc(-c3ncc4c(N5CC6CCC(C5)N6)nc(OCC56CCCN5CC(F)C6)nc4c3F)c12 | K98450-129-R-PDC complex spheroid growth, percent test/control | 90% |
| CC(C)n1nc(-c2ccc3oc(N)nc3c2)c2c(N)ncnc21 + C#Cc1c(F)ccc2cc(O)cc(-c3ncc4c(N5CC6CCC(C5)N6)nc(OCC56CCCN5CC(F)C6)nc4c3F)c12 | K98450-129-R-PDC complex spheroid growth, percent test/control | 84.4% |
| C=CC(=O)N1CCN(c2nc(OCC3CCCN3C)nc3c(F)c(-c4nc(N)cc(C)c4C(F)(F)F)c(Cl)cc23)C(C)C1 (stereo unspecified) + C#Cc1c(F)ccc2cc(O)cc(-c3ncc4c(N5CC6CCC(C5)N6)nc(OCC56CCCN5CC(F)C6)nc4c3F)c12 | K98450-129-R-PDC complex spheroid growth, percent test/control | 80.4% |
| C=CC(=O)Nc1cc(Nc2nccc(-c3cn(C)c4ccccc34)n2)c(OC)cc1N(C)CCN(C)C + C#Cc1c(F)ccc2cc(O)cc(-c3ncc4c(N5CC6CCC(C5)N6)nc(OCC56CCCN5CC(F)C6)nc4c3F)c12 | K98450-129-R-PDC complex spheroid growth, percent test/control | 94.3% |
